Reported growth values for a set of compounds
# System: SNB-75 CNS
# PROTOCOL DETAILS: NCI-60 one-dose screen, 48 h (100 = growth as untreated, 0 = no growth, -100 = all killed)
# SETUP CONDITIONS: 10 µM unless noted
About 83,000 compounds went through this panel and 20% of them were active in at least one assay; those are over-represented in the sample as a whole.
// return numeric value only (unit: %, not printed)

Solved entries:
Req: Answer with the recorded growth for the compound listed here: COc1cccc(C(=O)O)c1OC
Resp: 90.8

Req: Answer with the recorded growth for the compound listed here: Cc1ccc(O)c(N)c1
Resp: 87.7

***
Req: Answer with the recorded growth for the compound listed here: NC(CO)(CO)c1ccccc1
Resp: 88.7

Req: Answer with the recorded growth for the compound listed here: CCCCCCCCCCCCCCCCCCSC(=N)N
Resp: 88.6

====

# System: NCI-H522 lung
# PROTOCOL DETAILS: NCI-60 one-dose screen, 48 h
# SETUP CONDITIONS: 10 µM unless noted
The panel holds about 83,000 compounds, 20% with a hit somewhere; the sample as a whole holds those more often. Active and inactive are the calls of the source. How the source made its calls: active means growth percent below 10; inactive means the rest.
Mark one answer only. Choices: active, inactive

Examples with answers:
Req: Just curious, what result did C=C1SC(=Nc2c(C)cccc2C)N(c2nc(Cl)nc(Cl)n2)C12CCCCC2 get here?
Resp: inactive

Req: Just curious, what result did CCN(CC)c1ccc2nc3ccc(N=Nc4ccc(N(C)C)cc4)cc3[n+](-c3ccccc3)c2c1 get here?
Resp: active

Req: Just curious, what result did O=[N+]([O-])c1c(Cl)ncnc1Cl get here?
Resp: inactive

Req: Just curious, what result did CC(c1ccccc1)N(C)C (stereo unspecified) get here?
Resp: inactive

Req: Just curious, what result did CC(C)c1ccc(C(=O)OCCCl)cc1 get here?
Resp: inactive

Req: Just curious, what result did CCCNS(=O)(=O)c1ccc(Cl)cc1 get here?
Resp: inactive

Req: Just curious, what result did CCCCNC(=O)c1ccc(OCC)cc1 get here?
Resp: inactive

Req: Just curious, what result did N#C/C(=C\c1ccc(C#N)cc1)C(=O)c1ccccc1 get here?
Resp: inactive

***
Req: Just curious, what result did Nc1ccc2c(c1)Cc1cc(N)c(N)cc1-2 get here?
Resp: inactive

Req: Just curious, what result did COC(=O)c1ccccc1C(=O)c1c(C)cc(C)cc1C get here?
Resp: inactive

Req: Just curious, what result did NNc1ncnc2c1ncn2C1OC(CO)C(O)C1O (stereo unspecified) get here?
Resp: inactive

Req: Just curious, what result did C=CC(C)C(C)(C)O (stereo unspecified) get here?
Resp: inactive

Req: Just curious, what result did C=C1C(=O)C2CCC1C2 (stereo unspecified) get here?
Resp: inactive

Req: Just curious, what result did Cc1nc(C)c(C(=O)O)cc1C(=O)O get here?
Resp: inactive

Req: Just curious, what result did C=COC(=O)C(C)(C)C get here?
Resp: inactive

Req: Just curious, what result did O=C(O)CC1=CCCCC1 get here?
Resp: inactive

Req: Just curious, what result did NC(=S)c1c(N)n(C2OC(CO)C(O)C2O)c2ncnc(N)c12 (stereo unspecified) get here?
Resp: active

Req: Just curious, what result did CCOP(=O)(NC(c1ccccc1)c1ccccc1)OCC get here?
Resp: inactive

Req: Just curious, what result did CC(=O)NC(O)C(Cl)Cl (stereo unspecified) get here?
Resp: inactive

Req: Just curious, what result did Nc1ccn(C2CC(N)C(CO)O2)c(=O)n1 (stereo unspecified) get here?
Resp: inactive

Req: Just curious, what result did O=C(CCl)Nc1ccccc1SCc1cc(Cl)cc2c1OCOC2 get here?
Resp: active

====

# Tested on: OVCAR-8 ovarian
# PROTOCOL DETAILS: NCI-60 one-dose screen, 48 h
# SETUP CONDITIONS: 10 µM unless noted
The panel holds about 83,000 compounds, 20% with a hit somewhere; the sample as a whole holds those more often. Calls of active or inactive are those of the source. How the source made its calls: active means growth percent below 10; inactive means the rest.
Mark one answer only. Choices: active, inactive

Req: Just curious, what result did COc1cc(C(=O)NC(=S)NCc2ccncc2)cc(OC)c1OC get here?
Resp: inactive

***
Req: Just curious, what result did C/C(=N\O)c1ccccn1 get here?
Resp: inactive

Req: Just curious, what result did CC1(C)C2CCC1(C)C1(C2)OCCS1 (configuration not stated) get here?
Resp: inactive

Req: Just curious, what result did COC1OC(C(COC(C)=O)OC(C)=O)C(OC(C)=O)C(OC(C)=O)C1OC(C)=O (configuration not stated) get here?
Resp: inactive

Req: Just curious, what result did CCNC(=O)Oc1ccc[nH]c1=O get here?
Resp: inactive

Req: Just curious, what result did CCC(=O)C1C(=O)c2ccccc2C1=O get here?
Resp: inactive

Req: Just curious, what result did C=C1CC2(OC1=O)C(=O)N(C)c1ccc(I)cc12 (configuration not stated) get here?
Resp: active

Req: Just curious, what result did Cc1cc(Nc2ccc3c(c2)OCO3)c2cc3c(cc2n1)OCO3 get here?
Resp: inactive

Req: Just curious, what result did CCOc1ccncc1[N+](=O)[O-] get here?
Resp: inactive

Req: Just curious, what result did CN(C(=S)S(=O)(=O)C12CC3CC(CC(C3)C1)C2)c1ccccc1 get here?
Resp: inactive

Req: Just curious, what result did BrCc1cccc(C[P+](c2ccccc2)(c2ccccc2)c2ccccc2)c1 get here?
Resp: inactive

Req: Just curious, what result did CC(C)N(CCCC#N)C(C)C get here?
Resp: inactive

Req: Just curious, what result did N#Cc1ccc2nc[nH]c2c1 get here?
Resp: inactive

====

# System: DU-145 prostate
# PROTOCOL DETAILS: NCI-60 one-dose screen, 48 h (100 = growth as untreated, 0 = no growth, -100 = all killed)
# SETUP CONDITIONS: 10 µM unless noted
This is part of a sample that, as a whole, favours compounds with a hit. Of some 83,000 tested, about 20% had one in any assay.
PROPERTY NAME: growth (%)
// return numeric value only (unit: %, not printed)

Solved entries:
Req: Look up and report growth, with DU-145 prostate as system, for CN1CCCN(C(c2ccccc2)c2ccc(Cl)cc2)CC1 (stereo not given)
Resp: 107

Req: Look up and report growth, with DU-145 prostate as system, for CC(=O)Nc1ncc(S(=O)(=O)c2ccc([N+](=O)[O-])cc2)s1
Resp: 113

Req: Look up and report growth, with DU-145 prostate as system, for COc1c(CNC(=O)CCl)cc2[nH]c(C)cc2c1CNC(=O)CCl
Resp: 65.8

Req: Look up and report growth, with DU-145 prostate as system, for CCCCCCCCCCC(=O)CCCCCCCCCC
Resp: 111

Req: Look up and report growth, with DU-145 prostate as system, for Cc1ccc(S(N)(=O)=O)cc1Cl
Resp: 120

***
Req: Look up and report growth, with DU-145 prostate as system, for CCC(=O)Oc1c(C)cc(O)c2ccccc12
Resp: 107

Req: Look up and report growth, with DU-145 prostate as system, for O=S(=O)(O)C(C(I)I)S(=O)(=O)O
Resp: 106

Req: Look up and report growth, with DU-145 prostate as system, for NCCCN1CCCC1=O
Resp: 114

Req: Look up and report growth, with DU-145 prostate as system, for O=C(O)C1CSC(c2ccccc2)N1 (stereo not given)
Resp: 105

====

# Tested on: OVCAR-3 ovarian
# PROTOCOL DETAILS: NCI-60 one-dose screen, 48 h (100 = growth as untreated, 0 = no growth, -100 = all killed)
# SETUP CONDITIONS: 10 µM unless noted
Compounds without any hit were thinned out: in the full panel of roughly 83,000, 20% have a hit.
PROPERTY NAME: growth (%)
// return numeric value only (unit: %, not printed)

Solved entries:
Req: Answer with the recorded growth for the compound listed here: OCC(O)COc1ccc(Cl)cc1Cl (centres undefined)
Resp: 110

Req: Answer with the recorded growth for the compound listed here: CN(C(=S)S(=O)(=O)C12CC3CC(CC(C3)C1)C2)c1ccccc1
Resp: 73.7

Req: Answer with the recorded growth for the compound listed here: CC(C)(CC(=O)O)CC(=O)O
Resp: 105

Now let's try a different one.
Req: Answer with the recorded growth for the compound listed here: CC(=O)c1cccc(NS(=O)(=O)c2ccc(C)cc2)c1
Resp: 70.9

====

# System: HCT-15 colon
# PROTOCOL DETAILS: NCI-60 one-dose screen, 48 h (100 = growth as untreated, 0 = no growth, -100 = all killed)
# SETUP CONDITIONS: 10 µM unless noted
This is part of a sample that, as a whole, favours compounds with a hit. Of some 83,000 tested, about 20% had one in any assay.
Reported growth values for a set of compounds
// return numeric value only (unit: %, not printed)

Solved entries:
Req: Answer with the recorded growth for the compound listed here: CC(=O)c1cccc(O)c1
Resp: 101

Req: Answer with the recorded growth for the compound listed here: C=COC(=O)C(C)(C)C
Resp: 102

Req: Answer with the recorded growth for the compound listed here: O=C1NC(=O)C(c2ccccc2)O1 (stereo unspecified)
Resp: 107

Req: Answer with the recorded growth for the compound listed here: CC1(C)OC(=O)CC1=O
Resp: 110

Req: Answer with the recorded growth for the compound listed here: Cc1ccc(NC(=O)c2ccccc2Cl)cc1
Resp: 95.3

Req: Answer with the recorded growth for the compound listed here: COc1cccc(C(=O)O)c1OC
Resp: 101

***
Req: Answer with the recorded growth for the compound listed here: O=C(NC1CCCCC1)c1ccc(Cl)cc1
Resp: 108

Req: Answer with the recorded growth for the compound listed here: CC(=O)N=c1ccc2nc3c(cc(N)c4ccccc43)oc-2c1
Resp: -75.5

Req: Answer with the recorded growth for the compound listed here: CCOC(=N)CC(=O)Nc1cccc(C)c1Cl
Resp: 100

Req: Answer with the recorded growth for the compound listed here: Cc1ccc(NCN2C(=O)c3ccccc3C2=O)c(C)n1
Resp: 115

Req: Answer with the recorded growth for the compound listed here: CCOC(=O)N[C@H]1CCc2cc(OC)c(OC)c(OC)c2-c2ccc(SC)c(=O)cc21
Resp: 7.82

Req: Answer with the recorded growth for the compound listed here: C=C1C(=O)C2CCC1C2 (stereo unspecified)
Resp: 99.8

Req: Answer with the recorded growth for the compound listed here: Cc1nc(C)c(C(=O)O)cc1C(=O)O
Resp: 103

Req: Answer with the recorded growth for the compound listed here: NC(CCl)=NCC12CC3CC(CC(C3)C1)C2
Resp: 9.53
